- test-details: DUSP6 inhibitors restoring Erk phosphorylation by chemical complementation, primary imaging in DUSP6-transfected HeLa (AID 609)
- experimental-parameters: HeLa MKP-3 transfected, phospho-Erk imaging KS statistic; measured here: nuclear c-Myc green intensity z-score; at 10 µM; cells stimulated with TPA for 15 min
measured-parameter: z-score

molecule	measured-parameter	endpoint-result
CCCCC(=O)C1CCN(Cc2ccccc2)CC1	z-score	0.471
Cc1cc(C)n(CC2CC(=O)N(c3ccc(F)c(Cl)c3)C2=O)n1 (stereo unspecified)	z-score	0.731
C=CCOn1c(=O)c(-c2ccc(OC)cc2)[n+]([O-])c2ccccc21	z-score	0.00215
CCOc1ccc2c(c1)n([O-])c1c([n+]2=O)CCCC1	z-score	0.548
Cn1c(=O)n(CC(=O)Nc2ccccc2)c2ccccc21	z-score	0.676
CCCCn1c(=O)n(C)c(=O)c2c3c(sc21)COC(C)(C)C3	z-score	-0.449
